Each entry below carries its recorded cell death (% of dead cells among peptide loaded cells).
system: U373MG astrocytoma cells; type: cell-based, human
No end group written: not given here.
Answer in %, number only, no unit symbol.

Some entries whose results are on file:
SWESHKSGG [Cyto9-Δ]	7
SWESHKSGGQTRL [Cyto13-vir, SWESHKSGGQTRL]	8

Could you now look at the following substance, please?
Query SNRRVYKKMPSIESDV-OH [GluN2A-16, SNRRVYKKMPSIESDV] on U373MG astrocytoma cells; cell death (% of dead cells among peptide loaded cells) returned: 29

====

Kd values for the sequences below.
target: PTPN4-PDZ (Homo sapiens, UniProt P29074, S499G); assay: biochemical
Sequence (P29074 499-604 S499G): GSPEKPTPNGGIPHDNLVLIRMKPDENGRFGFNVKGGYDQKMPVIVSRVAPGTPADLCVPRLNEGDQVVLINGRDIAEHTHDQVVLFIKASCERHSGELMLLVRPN
No end group written: not given here.

// worked examples, Kd included
SWEDRETEV [SEQ ID NO: 7, SWEDRETEV]	3880 nM
SWEERETEF [SEQ ID NO: 6, SWEERETEF]	2520 nM
SWERRETEV [SEQ ID NO: 5, SWERRETEV]	2000 nM

Now examine the next entry.
Short answer on PTPN4-PDZ (Homo sapiens, UniProt P29074, S499G) for SWEERETEV [SEQ ID NO: 3, SWEERETEV] , Kd: 1350 nM

====

molecular target: PTPN4-PDZ (Homo sapiens, UniProt P29074, S499G); experiment: biochemical; assay type: binding; set-up: PTPN4-PDZ (residues G499-N604, G499 being a non-native residue due to the TEV cleavage site); GST (N, cleaved yes); made in house; host or cells: Escherichia coli BL21 (DE3) star; settings: Kd, affinity for PTPN4-PDZ
pKd: −log10 of the molar value. No end group written: not given here.
Please mark yes (1) if the recorded pKd is equal to or greater than 3, and no (0) if it falls below.

SWARVSKETPL [SEQ ID NO: 4, SWARVSKETPL]	yes (1)
SWESHKSGGQTRL [Cyto13-vir, SWESHKSGGQTRL]	yes (1)
SWESHKSGGETRL [Cyto13-att, SWESHKSGGETRL]	yes (1)

Please look at the following sequence next.
Prompt line: Does SWELYKSEGDARL [DARL-13, SWELYKSEGDARL] have a reported pKd of at least 3?
Response line: no (0)

Taken from patent US9234005B2.
